# assay.explanation: AUC (0 to 24 hrs) in Sprague-Dawley rat at 320 mg/kg, po by HPLC/MS/MS analysis
# Format: ADME, organism-based
# Design: time < 24 hr, dose 320 mg/kg, route oral
# experimental.conditions: plasma
readout: AUC(0-t) at 24 h (ng·h/mL)
# value in ng·h/mL; strip the unit string

Supply reported AUC(0-t) at 24 h belonging to this compound: Cc1nc(-c2ccc(Cl)cc2)nc(OCCCN2CCCCC2)c1Cl
54700

====

Property: Ratio Ki; scope: individual compounds
# Species: Cavia porcellus
# assay.explanation: Selectivity ratio of Ki for Dunkin Hartley guinea pig brain sigma-2 receptor to Ki for Dunkin Hartley guinea pig brain sigma-1 receptor
Give the figure only, with no unit attached.

Examples with their reported Ratio Ki follow.
Supply measured Ratio Ki of Cc1cc(OCCCN2CCC(=O)CC2)nc(-c2ccccc2)n1 in your reply.
4.7

For the compound Cc1cc(OCCCN2CCNCC2)nc(-c2ccccc2)n1 , report Ratio Ki.
8

Dear colleague, please send me the reported Ratio Ki for Cc1nc(C2CC2)nc(OCCCN2CCCCC2)c1Cl when you can.
33.6

Item Cc1nc(-c2ccccc2)nc(OCCCN2CCCCC2)c1F : provide Ratio Ki
363

Supply Ratio Ki value. Item: CCN(CC)CCCOc1cc(C)nc(-c2ccccc2)n1
28

Next:
Answer with the recorded Ratio Ki for the compound listed here: CCc1cc(OCCCN2CCCCC2)nc(-c2ccccc2)n1
55.6

Return reported Ratio Ki. Input compound: Cc1cc(OCCCN2CCCCC2)nc(-c2ccccc2)n1
89.1

Give the reported value of Ratio Ki for this record: Cc1ncnc(OCCCN2CCCCC2)c1Cl
5.9

Please supply the value of reported Ratio Ki for the item Cc1cc(OCCCN2CCC(C)CC2)nc(-c2ccccc2)n1
84.7

Specify reported Ratio Ki for the compound shown: Cc1cc(OCCCN2CCCN(C)CC2)nc(-c2ccccc2)n1
69.2

Read the entry Cc1cc(OCCCN2CCC(O)CC2)nc(-c2ccccc2)n1 and write its reported Ratio Ki.
3.8

Answer with the recorded Ratio Ki of CC(C)c1cc(OCCCN2CCCC2)nc(-c2ccccc2)n1 only.
5

Answer with the recorded Ratio Ki for the compound listed here: Cc1cc(OCCCN2CCOCC2)nc(-c2ccccc2)n1
26.1

# return recorded Ratio Ki for input Cc1cc(OCCCN2CCN(C)CC2)nc(-c2ccccc2)n1
58.3

Give Ratio Ki for Cc1cc(OCCCCN2CCOCC2)nc(-c2ccccc2)n1
11.2
